- targetDesc: Human cGAS amino acids 155-522 (Homo sapiens (Human))
- procedureSummary: cGAS biochemical activity assay (ATP remaining, Kinase-Glo Max luminescence)
- details: human cGAS 155-522, ATP remaining (Kinase-Glo Max); read-out: cGAS IC50
Listed next: entries and their corresponding IC50.

>  <givenSmiles>
COc1cccc(NC(=O)Cc2c(C)[nH]c3c(-c4ccccc4)c(C(F)(F)F)nn3c2=O)c1

>  <IC50>
20 to 250 µM

$$$$

// IC50 lookup, key: `COc1cccn2c(CO)c(-c3c(C)[nH]c4c(-c5ccccc5)c(C(F)(F)F)nn4c3=O)nc12`
20 to 250 µM

// IC50 lookup, key: `Cc1[nH]c2c(-c3ccccc3)c(C(F)(F)F)nn2c(=O)c1-c1nnc(C2CCOCC2)o1`
< 20 µM

// IC50 lookup, key: `COc1cccc(N(C)C(=O)c2c(C)[nH]c3c(-c4ccccc4)c(C(F)(F)F)nn3c2=O)c1`
> 250 µM

----------
- targetDesc: Human cGAS amino acids 155-522 (Homo sapiens (Human), UniProt Q8N884)
- Sequence (Q8N884 157-522): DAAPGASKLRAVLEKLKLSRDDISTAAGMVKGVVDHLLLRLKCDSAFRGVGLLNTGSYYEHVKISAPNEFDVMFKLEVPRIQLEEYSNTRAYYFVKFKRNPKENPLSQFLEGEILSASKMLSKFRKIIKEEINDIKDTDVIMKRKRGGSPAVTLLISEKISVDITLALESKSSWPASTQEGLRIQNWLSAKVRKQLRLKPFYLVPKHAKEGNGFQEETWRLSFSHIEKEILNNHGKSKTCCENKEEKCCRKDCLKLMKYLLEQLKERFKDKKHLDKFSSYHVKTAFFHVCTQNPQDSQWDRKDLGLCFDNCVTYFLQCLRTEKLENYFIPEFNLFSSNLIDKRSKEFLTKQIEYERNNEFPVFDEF
- procedureSummary: cGAS biochemical activity assay (ATP remaining, Kinase-Glo Max luminescence)
- details: human cGAS 155-522, ATP remaining (Kinase-Glo Max); read-out: cGAS IC50
Listed next: entries and their corresponding IC50.

Answered cases to consult:
>  <compound>
COCCOCc1[nH]c2c(-c3ccccc3)c(C#N)nn2c(=O)c1-c1nc2c(OC)cccc2o1

>  <testReadout>
IC50

>  <valueMeasured>
< 20 µM

$$$$
>  <compound>
Cc1[nH]c2c(-c3ccccc3)c(C(F)(F)F)nn2c(=O)c1-c1nc2c(OCCN)cccc2o1

>  <testReadout>
IC50

>  <valueMeasured>
20 to 250 µM

$$$$
>  <compound>
COc1cccc2oc(-c3c(C)[nH]c4c(-c5ccccc5)c(S(C)(=O)=O)nn4c3=O)nc12

>  <testReadout>
IC50

>  <valueMeasured>
20 to 250 µM

$$$$
>  <compound>
COc1cccc2oc(-c3c(C#N)[nH]c4c(-c5ccccc5)c(C(F)(F)F)nn4c3=O)nc12

>  <testReadout>
IC50

>  <valueMeasured>
< 20 µM

$$$$
>  <compound>
COc1ccc(C(N)=O)c2oc(-c3c(C)[nH]c4c(-c5ccccc5)c(C(F)(F)F)nn4c3=O)nc12

>  <testReadout>
IC50

>  <valueMeasured>
< 20 µM

$$$$
>  <compound>
COc1cc(C#N)cc2oc(-c3c(C)[nH]c4c(-c5ccccc5)c(C(F)(F)F)nn4c3=O)nc12

>  <testReadout>
IC50

>  <valueMeasured>
20 to 250 µM

$$$$
>  <compound>
Cc1[nH]c2c(-c3ccccc3)c(C(F)(F)F)nn2c(=O)c1-c1nc(C(N)=O)co1

>  <testReadout>
IC50

>  <valueMeasured>
20 to 250 µM

$$$$
>  <compound>
COc1ccccc1NC(=O)c1c(C)[nH]c2c(-c3ccccc3)c(C(F)(F)F)nn2c1=O

>  <testReadout>
IC50

>  <valueMeasured>
< 20 µM

$$$$
>  <compound>
Cc1[nH]c2c(-c3ccccc3)c(C(F)(F)F)nn2c(=O)c1-c1nnc(C(C)C)o1

>  <testReadout>
IC50

>  <valueMeasured>
20 to 250 µM

$$$$
>  <compound>
Cc1[nH]c2c(-c3ccccc3)c(C(F)(F)F)nn2c(=O)c1C(=O)Nc1nn(C)cc1C#N

>  <testReadout>
IC50

>  <valueMeasured>
< 20 µM

$$$$

// IC50 lookup, key: `Cc1[nH]c2c(-c3ccccc3)c(C(F)(F)F)nn2c(=O)c1C(=O)NC1CCCC1`
20 to 250 µM

// IC50 lookup, key: `Cc1[nH]c2c(-c3ccccc3)c(C(F)(F)F)nn2c(=O)c1C(=O)Nc1ccn(C2CCCCC2)n1`
20 to 250 µM

// IC50 lookup, key: `COc1cccc2oc(-c3c(C)[nH]c4c(-c5ccccc5F)c(C(F)(F)F)nn4c3=O)nc12`
< 20 µM

// IC50 lookup, key: `COc1cccc2oc(-c3c(C)[nH]c4c(-c5ccc(C#N)cc5)c(C(F)(F)F)nn4c3=O)nc12`
> 250 µM

// IC50 lookup, key: `COc1c(N)ccc2oc(-c3c(C)[nH]c4c(-c5ccccc5)c(C#N)nn4c3=O)nc12`
< 20 µM

// IC50 lookup, key: `COCc1[nH]c2c(-c3ccccc3)c(C(=O)O)nn2c(=O)c1-c1nc2c(OC)cccc2o1`
20 to 250 µM

// IC50 lookup, key: `Cc1[nH]c2c(-c3ccccc3)c(C(F)(F)F)nn2c(=O)c1CC(=O)Nc1ccccc1`
20 to 250 µM

// IC50 lookup, key: `Cc1[nH]c2c(-c3ccccc3)c(C(F)(F)F)nn2c(=O)c1CC(=O)N1CCN(c2ccccc2)CC1`
> 250 µM

// IC50 lookup, key: `COc1c(F)cccc1NC(=O)c1c(C)[nH]c2c(-c3ccccc3)c(C(F)(F)F)nn2c1=O`
20 to 250 µM

----------
- targetDesc: Human cGAS amino acids 155-522 (Homo sapiens (Human), UniProt Q8N884)
- procedureSummary: cGAS biochemical activity assay (ATP remaining, Kinase-Glo Max luminescence)
- details: cGAS IC50, human cGAS 155-522, ATP remaining (Kinase-Glo Max)
pIC50: −log10 of the molar value.
testReadout: pIC50

// pIC50 lookup, key: `Cc1[nH]c2c(-c3ccccc3)c(C(F)(F)F)nn2c(=O)c1-c1nc2c(OC(=O)N(C)C)cccc2o1`
> 4.70

----------
- targetDesc: Human cGAS amino acids 155-522 (Homo sapiens (Human), UniProt Q8N884)
- procedureSummary: cGAS biochemical activity assay (ATP remaining, Kinase-Glo Max luminescence)
- details: human cGAS 155-522, ATP remaining (Kinase-Glo Max); read-out: cGAS IC50
testReadout: IC50

// IC50 lookup, key: `COc1cccc2oc(-c3c(C)[nH]c4c(-c5ccccc5)c(C5CC5)nn4c3=O)nc12`
> 250 µM

// IC50 lookup, key: `Cc1[nH]c2c(-c3cccnc3)c(C(F)(F)F)nn2c(=O)c1-c1nc2c(o1)CCCC2`
> 250 µM

// IC50 lookup, key: `Cc1[nH]c2c(-c3ccccc3)c(C(F)(F)F)nn2c(=O)c1C(=O)Nc1cccc2c1OC(F)(F)O2`
< 20 µM

// IC50 lookup, key: `Cc1cc(NC(=O)c2c(C)[nH]c3c(-c4ccccc4)c(C(F)(F)F)nn3c2=O)[nH]n1`
< 20 µM

// IC50 lookup, key: `COc1cc(Br)cc(NC(=O)c2c(C)[nH]c3c(-c4ccccc4)c(C(F)(F)F)nn3c2=O)c1`
< 20 µM

// IC50 lookup, key: `Cc1[nH]c2c(-c3ccccc3)c(C(F)(F)F)nn2c(=O)c1-c1nnc(N2CCCCC2)o1`
< 20 µM

// IC50 lookup, key: `COc1cccnc1NC(=O)c1c(C)[nH]c2c(-c3ccccc3)c(C(F)(F)F)nn2c1=O`
< 20 µM

----------
- targetDesc: Human cGAS amino acids 155-522 (Homo sapiens (Human), UniProt Q8N884)
- procedureSummary: cGAS biochemical activity assay (ATP remaining, Kinase-Glo Max luminescence)
- details: human cGAS 155-522, ATP remaining (Kinase-Glo Max); read-out: cGAS IC50
pIC50: −log10 of the molar value.
Listed next: entries and their corresponding pIC50.

// pIC50 lookup, key: `Cc1[nH]c2c(-c3ccccc3)c(C(F)(F)F)nn2c(=O)c1C(=O)N1CCCCC1`
< 3.60

// pIC50 lookup, key: `COc1cccc2oc(-c3c(C(=O)Nc4ccn(C)n4)[nH]c4c(-c5ccccc5)c(C(F)(F)F)nn4c3=O)nc12`
> 4.70

// pIC50 lookup, key: COc1cccc2oc(-c3c(COC4CCN(C)C4=O)[nH]c4c(-c5ccccc5)c(C(F)(F)F)nn4c3=O)nc12 (stereo not shown)
> 4.70

// pIC50 lookup, key: `Cc1[nH]c2c(-c3ccccc3)c(C(F)(F)F)nn2c(=O)c1-c1nc2ccccc2n1-c1ccccc1`
3.60 to 4.70

// pIC50 lookup, key: `Cc1[nH]c2c(-c3ccccc3)c(C(F)(F)F)nn2c(=O)c1-c1nc2ccccc2o1`
< 3.60

// pIC50 lookup, key: `COC(C)(C)c1nnc(-c2c(C)[nH]c3c(-c4ccccc4)c(C(F)(F)F)nn3c2=O)o1`
3.60 to 4.70

// pIC50 lookup, key: `CNc1cc(OC)c2nc(-c3c(C)[nH]c4c(-c5ccccc5)c(C(F)(F)F)nn4c3=O)oc2c1`
> 4.70

----------
- targetDesc: Human cGAS amino acids 155-522 (Homo sapiens (Human), UniProt Q8N884)
- procedureSummary: cGAS biochemical activity assay (ATP remaining, Kinase-Glo Max luminescence)
- details: human cGAS 155-522, ATP remaining (Kinase-Glo Max); read-out: cGAS IC50
Listed next: entries and their corresponding IC50.

// IC50 lookup, key: `Cc1[nH]c2c(-c3ccccc3)c(C(F)(F)F)nn2c(=O)c1-c1nnc(C#N)o1`
< 20 µM

// IC50 lookup, key: COc1cccc2oc(-c3c(C[S+](C)[O-])[nH]c4c(-c5ccccc5)c(C(F)(F)F)nn4c3=O)nc12 (stereo not drawn)
< 20 µM

// IC50 lookup, key: Cc1[nH]c2c(-c3ccccc3)c(C(F)(F)F)nn2c(=O)c1-c1nc2c(o1)CCCC2O (stereo not drawn)
< 20 µM

// IC50 lookup, key: `Cc1[nH]c2c(-c3ccccc3)c(C(F)(F)F)nn2c(=O)c1-c1nc(C(=O)O)co1`
< 20 µM

// IC50 lookup, key: `COc1ncccc1-c1nnc(-c2c(C)[nH]c3c(-c4ccccc4)c(C(F)(F)F)nn3c2=O)o1`
> 250 µM
